biological target: μ-opioid receptor (Homo sapiens, UniProt P35372); assay: μ-opioid receptor [35S]GTPγS functional assay
Sequence (P35372 whole entry, species assumed): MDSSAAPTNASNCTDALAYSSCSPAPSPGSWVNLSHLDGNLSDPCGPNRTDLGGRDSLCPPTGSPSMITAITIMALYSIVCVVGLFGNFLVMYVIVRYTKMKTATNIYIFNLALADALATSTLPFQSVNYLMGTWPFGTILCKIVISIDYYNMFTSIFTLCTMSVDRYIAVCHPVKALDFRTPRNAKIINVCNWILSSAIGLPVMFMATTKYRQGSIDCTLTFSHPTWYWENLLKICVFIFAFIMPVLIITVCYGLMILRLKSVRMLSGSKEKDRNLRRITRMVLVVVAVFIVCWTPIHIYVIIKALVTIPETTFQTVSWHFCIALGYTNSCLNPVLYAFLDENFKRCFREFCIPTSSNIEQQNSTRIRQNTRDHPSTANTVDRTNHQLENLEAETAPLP
pEC50: −log10 of the molar value.

# Molecule, pEC50
records = [
    ("C=CC[N+]1(C)CCC2(C)c3cc(O)ccc3C[C@@H]1[C@@H]2C.[I-] (stereo partly shown)", "< 4.70"),
]

Taken from patent US20140066475A1.
